METHOD_SUMMARY: in vivo
EXPERIMENTAL_SETUP: male, SD, rat, iv, 2 mg/kg
EXPERIMENTAL_ENDPOINT: Vd (L/kg)
# number only, unit L/kg dropped from output

Qu. Report Vd for O=C1CCC(N2Cc3cc(CNC(=O)C(F)(F)c4ccc(Cl)cc4)ccc3C2=O)C(=O)N1 (stereo not shown) [CC-90009] please.
Ans. 2.85

----------
Tested on: KG-1 cells
METHOD_SUMMARY: Antiproliferative activity against KG-1 cells (CCK8)
Type: cell-based
EXPERIMENTAL_SETUP: Homo sapiens, 72 hours
Experimental: KG-1 cells in the logarithmic growth phase were diluted in a culture medium (RPMI + 10% FBS) and plated onto 96-well plates at 5000 cells/well, and the plates were incubated in an incubator at 37 °C with 5% CO2 for 24 hours. […] The cell proliferation was assessed using the CCK8 method. The cell growth inhibition IC50 values of the compounds were determined using an enzyme labeling method. The IC50 values were calculated using GraphPad Prism 7 software. […]
EXPERIMENTAL_ENDPOINT: IC50

Qu. Report IC50 for CC(C)(C)c1ccc2c(c1)C=C(C(=O)NCc1ccc3c(c1)CN(C1CCC(=O)NC1=O)C3=O)CO2 (stereo not shown) please.
Ans. 0.01 to 0.1 µM

Qu. Report IC50 for O=C1CCC(N2Cc3cc(CNC(=O)C4=Cc5ccc(F)cc5OC4)ccc3C2=O)C(=O)N1 (stereo not shown) please.
Ans. 0.01 to 0.1 µM

Qu. Report IC50 for O=C1CCC(N2Cc3cc(CNC(=O)C4CCc5ccccc5C4)ccc3C2=O)C(=O)N1 (stereo not shown) please.
Ans. ≥ 1 µM

Qu. Report IC50 for O=C1CCC(N2Cc3cc(CNC(=O)C4CNc5ccccc5C4)ccc3C2=O)C(=O)N1 (stereo not shown) please.
Ans. 0.001 to 0.01 µM

----------
System: U937
METHOD_SUMMARY: Antiproliferative activity against tumor cells (CCK8), U937
Assay type: cell-based
EXPERIMENTAL_SETUP: Homo sapiens, U-937, 72 hours
pIC50: −log10 of the molar value.
EXPERIMENTAL_ENDPOINT: pIC50

Qu. Report pIC50 for O=C1CCC(N2Cc3cc(CNC(=O)C(F)(F)c4ccc(Cl)cc4)ccc3C2=O)C(=O)N1 (centres unmarked) please.
Ans. 7.00 to 8.00

Qu. Report pIC50 for O=C1CCC(N2Cc3cc(CNC(=O)C4CCc5ccccc5C4)ccc3C2=O)C(=O)N1 (centres unmarked) please.
Ans. ≤ 6.00

Qu. Report pIC50 for O=C1CCC(N2Cc3cc(CNC(=O)C4COc5ccccc5C4)ccc3C2=O)C(=O)N1 (centres unmarked) please.
Ans. 8.00 to 9.00

Qu. Report pIC50 for O=C1CCC(N2Cc3cc(CNC(=O)C4COc5ccc(OC(F)(F)F)cc5C4)ccc3C2=O)C(=O)N1 (centres unmarked) please.
Ans. 8.00 to 9.00

Qu. Report pIC50 for O=C1CCC(N2Cc3cc(CNC(=O)C4=Cc5cc(OC(F)(F)F)ccc5OC4)ccc3C2=O)C(=O)N1 (centres unmarked) please.
Ans. 8.00 to 9.00

----------
METHOD_SUMMARY: in vivo
EXPERIMENTAL_SETUP: male, SD, rat, po, 10 mg/kg
EXPERIMENTAL_ENDPOINT: Tmax (h)
# number only, unit h dropped from output

Qu. Report Tmax for O=C1CCC(N2Cc3cc(CNC(=O)C(F)(F)c4ccc(Cl)cc4)ccc3C2=O)C(=O)N1 (stereo not shown) [CC-90009] please.
Ans. 1.5

----------
METHOD_SUMMARY: Metabolic stability in in vitro rat liver microsomes
EXPERIMENTAL_SETUP: rat
EXPERIMENTAL_ENDPOINT: half-life (h)
# number only, unit h dropped from output

O=C1CCC(N2Cc3cc(CNC(=O)C4=Cc5cc(OC(F)(F)F)ccc5OC4)ccc3C2=O)C(=O)N1 (centres unmarked) | 2.77

Qu. Report half-life for O=C1CCC(N2Cc3cc(CNC(=O)C4COc5ccccc5C4)ccc3C2=O)C(=O)N1 (centres unmarked) please.
Ans. 0.735

Qu. Report half-life for O=C1CCC(N2Cc3cc(CNC(=O)C4=Cc5ccccc5OC4)ccc3C2=O)C(=O)N1 (centres unmarked) please.
Ans. 6.17

Qu. Report half-life for O=C1CCC(N2Cc3c(ccc(CNC(=O)C4=Cc5cc(OC(F)(F)F)ccc5OC4)c3F)C2=O)C(=O)N1 (centres unmarked) please.
Ans. 3.11

Qu. Report half-life for O=C1CCC(N2Cc3cc(CNC(=O)C4=Cc5cc(F)ccc5OC4)ccc3C2=O)C(=O)N1 (centres unmarked) please.
Ans. 4.67

----------
METHOD_SUMMARY: in vivo
EXPERIMENTAL_SETUP: male, SD, rat, iv, 2 mg/kg
EXPERIMENTAL_ENDPOINT: AUC(0-inf) (ng·h/mL)
# number only, unit ng·h/mL dropped from output

Qu. Report AUC(0-inf) for O=C1CCC(N2Cc3cc(CNC(=O)C(F)(F)c4ccc(Cl)cc4)ccc3C2=O)C(=O)N1 (stereo not shown) please.
Ans. 1200

----------
METHOD_SUMMARY: In vivo pharmacokinetic study in rats
EXPERIMENTAL_SETUP: male, SD, rat, plasma, po, 10 mg/kg
The compounds listed here are annotated with their AUC(0-inf).
# number only, unit ng·h/mL dropped from output

Consider the reported AUC(0-inf) for these compounds:
O=C1CCC(N2Cc3c(ccc(CNC(=O)C4=Cc5cc(OC(F)(F)F)ccc5OC4)c3F)C2=O)C(=O)N1 (stereo not drawn) | 7190
O=C1CCC(N2Cc3cc(CNC(=O)C4=Cc5cc(OC(F)(F)F)ccc5OC4)ccc3C2=O)C(=O)N1 (stereo not drawn) | 4980

Qu. Report AUC(0-inf) for O=C1CCC(N2Cc3cc(CNC(=O)C4=Cc5ccccc5OC4)ccc3C2=O)C(=O)N1 (stereo not drawn) please.
Ans. 1850

----------
The molecules listed here are annotated with their IC50.
Tested on: KG-1 cells
METHOD_SUMMARY: Antiproliferative activity against KG-1 cells (CCK8)
Format: cell-based
EXPERIMENTAL_SETUP: Homo sapiens, 72 hours

Consider the reported IC50 for these molecules:
C=CC(=O)Nc1ccc2c(c1)C=C(C(=O)NCc1ccc3c(c1)CN(C1CCC(=O)NC1=O)C3=O)CO2 (centres unmarked) | ≥ 1000 nM
C#Cc1ccc2c(c1)C=C(C(=O)NCc1ccc3c(c1)CN(C1CCC(=O)NC1=O)C3=O)CO2 (centres unmarked) | 100 to 1000 nM

Qu. Give recorded IC50 with KG-1 cells for the following molecule: C=Cc1ccc2c(c1)C=C(C(=O)NCc1ccc3c(c1)CN(C1CCC(=O)NC1=O)C3=O)CO2 (centres unmarked)
Ans. 10 to 100 nM

Qu. Give recorded IC50 with KG-1 cells for the following molecule: O=C1CCC(N2Cc3cc(CNC(=O)C4=Cc5ccccc5OC4)ccc3C2=O)C(=O)N1 (centres unmarked)
Ans. 10 to 100 nM

Qu. Give recorded IC50 with KG-1 cells for the following molecule: Cc1cccc2c1C=C(C(=O)NCc1ccc3c(c1)CN(C1CCC(=O)NC1=O)C3=O)CO2 (centres unmarked)
Ans. 1 to 10 nM

----------
The molecules listed here are annotated with their IC50.
Test system: U937
METHOD_SUMMARY: Antiproliferative activity against tumor cells (CCK8), U937
Assay type: cell-based
EXPERIMENTAL_SETUP: Homo sapiens, U-937, 72 hours

Consider the reported IC50 for these molecules:
O=C1CCC(N2Cc3cc(CNC(=O)C4=Cc5cc(F)ccc5OC4)ccc3C2=O)C(=O)N1 (stereo not drawn) [Compound A-3] | 10 to 100 nM
O=C1CCC(N2Cc3cc(CNC(=O)C4CNc5ccccc5C4)ccc3C2=O)C(=O)N1 (stereo not drawn) [Compound C-1] | 10 to 100 nM

Switching to the query record.
Qu. Report IC50 for O=C1CCC(N2Cc3cc(CNC(=O)C4=Cc5ccccc5OC4)ccc3C2=O)C(=O)N1 (stereo not drawn) [Compound A-1] please.
Ans. 1 to 10 nM
